B1: TPR t1 (parent)
chain: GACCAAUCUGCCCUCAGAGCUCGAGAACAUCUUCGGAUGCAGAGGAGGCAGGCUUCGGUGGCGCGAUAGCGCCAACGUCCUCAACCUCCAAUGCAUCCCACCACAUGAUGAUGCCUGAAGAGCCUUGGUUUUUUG

variants of: B1; experiment: polymerase ribozyme fitness, log enrichment relative to wild type (log ratio); higher = more active; in vitro selection for triplet polymerase activity
Each item that follows carries a reported polymerase ribozyme fitness (log ratio).
Just the number.

These solved cases illustrate the format of a correct answer.
A6U G128A
-2.02
G51U A91G
-5.12

Attention now shifts to the item below.
Looking up C62G U106C , I see its polymerase ribozyme fitness (log ratio) listed as -2.05
